Entries and their measured LD50 at 336 h follow.
assay: Acute toxicity in the mouse, oral; set-up: species or system mouse (Swiss); conditions: in vivo, aqueous solution, up to 14 days, Litchfield and Wilcoxon
measured_quantity: LD50 at 336 h (mg/kg)

[
  {
    "compound": "C=CCc1c(O)c(CN2CCN(CCO)CC2)cc2c(C)cc(=O)oc12.ClOCl [Compound 26]",
    "measured_quantity": "LD50 at 336 h",
    "readout_number": 1950
  },
  {
    "compound": "C=CCc1c(O)c(CN(C)C)cc2c(C)cc(=O)oc12.Cl [Compound 19]",
    "measured_quantity": "LD50 at 336 h",
    "readout_number": 1210
  }
]

---

test: Acute toxicity in the rat, oral; set-up: species or system rat (Sprague Dawley); settings: in vivo, aqueous solution, up to 14 days, Litchfield and Wilcoxon
measured_quantity: LD50 at 336 h

[
  {
    "chemical_string": "C=CCc1c(O)c(CN2CCN(CCO)CC2)cc2c(C)cc(=O)oc12.ClOCl",
    "measured_quantity": "LD50 at 336 h",
    "result": "3160 mg/kg"
  },
  {
    "chemical_string": "C=CCc1c(O)c(CN(C)C)cc2c(C)cc(=O)oc12.Cl",
    "measured_quantity": "LD50 at 336 h",
    "result": "2000 mg/kg"
  }
]
